Each recorded value in this set is attributed to patent US6365633B1.

biological target: [3H]Noradenaline reuptake in rat brain tissue; assay: in vitro [3H]noradrenaline reuptake inhibition in rat brain tissue; type: biochemical; conditions: means of ≧3 separate determinations
Quantity Kind: Ki (nM)
Note: unit nM is implicit; provide only the numeric part.

CC(NC(C)(C)C)C(=O)c1cccc(Cl)c1 (centres unmarked)	2590

Next up:
Please state recorded Ki (tested on [3H]Noradenaline reuptake in rat brain tissue) of COc1ccc(C(CN(C)C)C2(O)CCCCC2)cc1 (centres unmarked)
196

====

Measured Ki, listed per entry.
target: [3H]Dopamine reuptake in rat brain tissue; assay: in vitro [3H]dopamine reuptake inhibition in rat brain tissue; type: biochemical; conditions: means of ≧3 separate determinations
Remember to follow the number with its unit.

Please report the recorded Ki for COc1ccc(C(CN(C)C)C2(O)CCCCC2)cc1 (centres unmarked) .
2590 nM

Please report the recorded Ki for CC(NC(C)(C)C)C(=O)c1cccc(Cl)c1 (centres unmarked) .
409 nM
